# SYSTEM_TESTED: Neurogenic locus notch homolog protein 2 (Homo sapiens) (UniProt Q04721)
# Sequence (Q04721 whole entry, looked up): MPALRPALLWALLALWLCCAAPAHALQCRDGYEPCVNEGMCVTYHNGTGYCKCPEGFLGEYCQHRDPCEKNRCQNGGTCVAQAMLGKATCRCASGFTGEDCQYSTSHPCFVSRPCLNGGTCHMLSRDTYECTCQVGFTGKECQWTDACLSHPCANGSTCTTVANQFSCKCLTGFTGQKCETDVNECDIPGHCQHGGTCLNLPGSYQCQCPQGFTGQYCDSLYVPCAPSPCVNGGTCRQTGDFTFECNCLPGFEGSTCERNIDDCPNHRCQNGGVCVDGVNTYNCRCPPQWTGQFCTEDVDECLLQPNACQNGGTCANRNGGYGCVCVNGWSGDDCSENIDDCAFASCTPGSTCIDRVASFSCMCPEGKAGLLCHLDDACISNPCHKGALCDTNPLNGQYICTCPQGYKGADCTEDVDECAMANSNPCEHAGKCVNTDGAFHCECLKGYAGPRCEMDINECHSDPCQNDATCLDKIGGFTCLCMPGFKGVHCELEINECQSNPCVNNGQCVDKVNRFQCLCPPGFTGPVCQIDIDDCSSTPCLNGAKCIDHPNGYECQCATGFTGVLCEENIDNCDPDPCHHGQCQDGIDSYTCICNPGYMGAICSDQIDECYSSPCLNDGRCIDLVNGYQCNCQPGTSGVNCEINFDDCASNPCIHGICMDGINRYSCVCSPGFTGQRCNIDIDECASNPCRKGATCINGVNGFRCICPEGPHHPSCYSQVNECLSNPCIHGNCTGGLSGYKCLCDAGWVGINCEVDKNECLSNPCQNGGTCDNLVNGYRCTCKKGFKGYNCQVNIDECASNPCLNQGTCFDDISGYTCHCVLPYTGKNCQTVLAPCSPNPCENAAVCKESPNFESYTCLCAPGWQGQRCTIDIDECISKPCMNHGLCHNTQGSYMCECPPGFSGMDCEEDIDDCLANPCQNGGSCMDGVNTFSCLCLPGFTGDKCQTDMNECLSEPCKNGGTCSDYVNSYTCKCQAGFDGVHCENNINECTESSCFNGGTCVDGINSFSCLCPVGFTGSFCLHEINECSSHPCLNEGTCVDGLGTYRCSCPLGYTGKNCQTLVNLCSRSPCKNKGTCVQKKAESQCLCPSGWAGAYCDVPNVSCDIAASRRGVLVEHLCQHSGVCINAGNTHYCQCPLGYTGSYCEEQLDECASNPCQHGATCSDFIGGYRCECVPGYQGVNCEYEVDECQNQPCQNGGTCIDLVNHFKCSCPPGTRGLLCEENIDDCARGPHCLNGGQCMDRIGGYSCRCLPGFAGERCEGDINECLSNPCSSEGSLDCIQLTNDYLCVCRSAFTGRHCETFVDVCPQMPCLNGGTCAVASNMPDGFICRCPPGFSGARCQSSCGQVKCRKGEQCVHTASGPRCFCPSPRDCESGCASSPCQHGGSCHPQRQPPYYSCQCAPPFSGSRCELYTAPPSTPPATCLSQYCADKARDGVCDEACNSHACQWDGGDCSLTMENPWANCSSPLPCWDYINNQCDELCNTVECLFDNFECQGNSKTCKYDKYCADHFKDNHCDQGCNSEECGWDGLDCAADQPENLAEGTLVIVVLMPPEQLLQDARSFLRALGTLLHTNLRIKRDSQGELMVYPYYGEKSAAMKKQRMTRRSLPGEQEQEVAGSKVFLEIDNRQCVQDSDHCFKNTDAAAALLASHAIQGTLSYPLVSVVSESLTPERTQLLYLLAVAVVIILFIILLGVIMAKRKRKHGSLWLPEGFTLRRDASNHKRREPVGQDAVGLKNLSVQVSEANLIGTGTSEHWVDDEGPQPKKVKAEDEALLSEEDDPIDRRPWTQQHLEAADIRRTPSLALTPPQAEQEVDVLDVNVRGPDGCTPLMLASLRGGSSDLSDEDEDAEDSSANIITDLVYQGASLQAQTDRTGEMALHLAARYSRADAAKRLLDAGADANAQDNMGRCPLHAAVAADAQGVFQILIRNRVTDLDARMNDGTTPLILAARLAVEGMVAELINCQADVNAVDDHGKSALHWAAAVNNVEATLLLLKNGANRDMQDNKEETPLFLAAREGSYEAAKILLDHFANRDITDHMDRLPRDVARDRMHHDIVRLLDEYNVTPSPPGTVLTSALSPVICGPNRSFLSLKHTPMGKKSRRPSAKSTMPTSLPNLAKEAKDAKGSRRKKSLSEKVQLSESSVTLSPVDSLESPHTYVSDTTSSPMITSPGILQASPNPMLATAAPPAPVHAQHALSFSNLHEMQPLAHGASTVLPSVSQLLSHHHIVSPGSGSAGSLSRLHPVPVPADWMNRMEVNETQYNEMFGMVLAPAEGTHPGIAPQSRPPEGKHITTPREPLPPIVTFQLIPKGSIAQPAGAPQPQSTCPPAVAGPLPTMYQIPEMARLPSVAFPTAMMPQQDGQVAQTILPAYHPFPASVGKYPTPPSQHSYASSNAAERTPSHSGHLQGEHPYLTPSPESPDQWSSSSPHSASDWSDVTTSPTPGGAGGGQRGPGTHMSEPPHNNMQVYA
# EXPERIMENTAL_DETAILS: small molecules binding Notch2 protein – biochemical, small-molecule microarray, 635 nm fluorescence, stem cell growth factors, primary screen (AID 1073)
# PARTICULARS: higher = more signal
OBSERVABLE: composite z-score
Output: the number by itself.

As a guide, the following entries are already answered.
1) C=C[C@H](C)[C@@H](OC(=O)Nc1ccc(SC)cc1)c1ccc(O)c2ccccc12 0.68
2) CCOC(=O)C[C@H]1[C@H](OC(=O)c2ccc(-c3ccccc3)cc2)[C@@H](NC(=O)c2ccccc2)c2cc(OCCCO)ccc2N1C(=O)Cc1ccc(OC)cc1 -0.639
3) CO[C@H]1O[C@H](CO)[C@@H](OC(=O)Nc2cccc(F)c2)[C@H](OC(=O)Nc2ccccc2)[C@H]1OC(=O)Nc1ccccc1 1.07

Could you now consider this next compound?
Q: Which composite z-score value belongs to `COCC(=C=CC[C@H](O)c1ccccc1OCCO)CCO` ?
Result: -0.626

----------
# EXPERIMENTAL_DETAILS: resazurin metabolic signal in A549 cells – cell-based, resazurin fluorescence, 24 h, PK04 Diversity Set, profiling panel (AID 1171); note: test concentration not given here
# PARTICULARS: A549 viability, higher = more signal, called active from +8 up or from −8 down
# note: exactly -0.6 is not below, so it is rule not met; use rule met for z-score strictly under it

Q: Does this molecule meet the criterion z-score < -0.6? `C[N+](C)(C)CCCC[C@@H]1NC(=O)[C@@H]2C[C@H](C(=O)NCCCCCCNC(=O)CS)[C@H](c3ccc(O)cc3)N2C1=O`
Result: rule not met

----------
# EXPERIMENTAL_DETAILS: probe aCHRDL2 binding to arrayed compounds – biochemical, biotinylated probe, 635/667 nm fluorescence, primary screen (AID 1100)
# PARTICULARS: small-molecule microarray, higher = more signal
OBSERVABLE: composite z-score
Give the figure by itself; no unit, no explanation.

Observe how each entry below is paired with its result.
COMPOUND	composite z-score
COC(=O)[C@@]1(Cc2ccccc2)[C@H]2c3cc(C(=O)N(C)C)n(CCc4c[nH]c5ccc(O)cc45)c3C[C@H]2CN1C(=O)c1ccccc1	1.2
COc1ccc([Si](C)(C)[C@H]2[C@H](CC(=O)N3CCC[C@H]3CO)O[C@@]3(C(=O)N(Cc4cccc(N5CCOC5=O)c4)c4ccccc43)[C@@H]2C)cc1	-0.425

Q: Which value of composite z-score has been reported for `[N-]=[N+]=NCc1ccccc1[C@H]1OC(c2ccc(OCCCO)cc2)=N[C@@]1(Cc1ccccc1)C(=O)N1CCCCC1` in the records?
Result: 0.574

Q: Given the compound O=C1C2C=CC(C(O)c3ccc(-c4ccccc4)s3)N(Nc3ccccc3)C2C(=O)N1c1ccccc1 (centres undefined) , what is its reported composite z-score?
Result: 0.953

----------
# EXPERIMENTAL_DETAILS: FRG1 expression reporter modulators in myotubes – cell-based, C2C12 myotubes, firefly/Renilla luciferase, luminescence, FRG1 inhibition for FSHD, primary screen (AID 1084)
# PARTICULARS: FRG1 promoter luciferase, higher = more signal, called active from +8 up or from −8 down
Listed next: entries and their corresponding z-score.
// no unit, no text: just the number

These recorded examples may help you get a feel for the data.
COMPOUND	z-score
Cc1ccc(S[C@]2(C(=O)O)CC(=O)N(C(C)C)[C@@H]2c2ccc(CO)cc2)cc1	-0.175
COCCOC(=O)N1C(=O)[C@@]2(c3cc(C#Cc4ccc(OC)cc4)ccc31)[C@H](c1ccc(O)cc1)N1[C@H](c3ccccc3)[C@H](c3ccccc3)OC(=O)[C@H]1[C@@H]2C(=O)Nc1nc2ccccc2s1	2.63
CCOC(=O)C1=C[C@@H](C(C)C)N(S(=O)(=O)c2ccc(C)cc2)[C@H]1c1ccccc1F	-1.83
CCCCCCc1nc(-c2ccc(-c3ccc(Cl)c(Cl)c3)o2)cc2c1[Si](C(C)C)(C(C)C)O[C@H]2c1ccccc1	0.213
COCCOC(=O)N1C(=O)[C@@]2(c3ccccc31)[C@H](C(=O)N1CCc3cc(OC)c(OC)cc3C1)[C@H]1C(=O)O[C@H](c3ccccc3)[C@H](c3ccccc3)N1[C@@H]2c1ccc(O)cc1	-2.26
CCCC[C@@H]1C[C@H]1[C@@H](NC(=O)c1cccnc1)c1ccc(Cl)cc1	0.188

Q: // z-score lookup, key: `COCCCNC(=O)[C@@]1(Sc2ccc(C)cc2)CC(=O)N(Cc2ccccc2Cl)[C@@H]1c1ccc(CO)cc1`
Result: -2.45

Q: Entry under review: `COC(=O)[C@@]1(Cc2ccc(OC)cc2)[C@H]2c3cc(C(=O)N4CCCC4)n(CCc4ccc(O)c(O)c4)c3C[C@H]2CN1C(=O)c1ccccc1` . Reported z-score?
Result: 2.61

Q: Need z-score of C=CCC(OC(C)=O)[C@@H]1[C@@H](N(Cc2ccc(-c3cccc(C(F)(F)F)c3)o2)C(=O)Cc2ccc(OC)cc2)c2cc(OCCCO)ccc2N1C(=O)c1ccc2ccccc2c1 (some centres not stated) , thanks.
Result: 0.782

Q: I am curious: what z-score value has been reported for CN1C(=O)C2C=CC(C(O)c3c(F)cccc3Cl)N(NC(=O)OC(C)(C)C)C2C1=O (configuration not stated) ?
Result: 0.636

Q: Item `COC(=O)[C@@]1(Cc2ccccc2)[C@H]2c3cc(C(=O)N4CCCC4)n(Cc4c(CO)[nH]cc(C)c4=O)c3C[C@H]2CN1C(=O)c1ccccc1` has what recorded z-score?
Result: 1.39

Hey, just so you know, these numbers are from PubChem BioAssay.
